This collection of values is drawn from PubChem BioAssay AID1963843.

- Tested on: 616215-338-R-J1-PDC complex spheroid viability;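 also: spheroids exposed to compounds for one week before readout; percent viability relative to DMSO vehicle wells taken as 100%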
- TEST DESCRIPTION: Anticancer human tumor 616215-338-R-J1-PDC patient-derived colon adenocarcinoma cell line growth inhibition [POLQ]
- SETTINGS: second compound 0.316 µM; first compound 3.16 µM; stronger effect = lower value
MEASURE NAME: viability, T/C

Study these solved cases before continuing.
COMPOUND | viability, T/C
O=c1[nH]cc(F)c(=O)[nH]1 + Cc1cccc(N(C)C(=O)C2C(O)CCN2c2nc(C)cc(C(F)(F)F)c2C#N)c1 | 56.9%
CCc1cc2c(N3CCc4c(cc(Cn5ccnc5)cc4-c4cn(C)nc4C(F)(F)F)C3=O)ccnc2c(OC)n1 + Nc1ccc(C#CCN(C(=O)Cc2ncc(C(F)(F)F)cc2C(F)(F)F)c2ccc(F)cc2)nn1 | 53.6%
COc1cccc2c1C(=O)c1c(O)c3c(c(O)c1C2=O)CC(O)(C(=O)CO)CC3OC1CC(N)C(O)C(C)O1 (stereo unspecified) + Cc1cccc(N(C)C(=O)C2C(O)CCN2c2nc(C)cc(C(F)(F)F)c2C#N)c1 | 3.48%
CC1COCCN1c1cc(-c2ccnn2C)c2ccnc(-c3ccn[nH]3)c2n1 (stereo unspecified) + COC1C(OC(N)=O)C(O)C(Oc2ccc3c(O)c(NC(=O)c4ccc(O)c(CC=C(C)C)c4)c(=O)oc3c2C)OC1(C)C | 29.7%
O=C(c1cc(Cc2n[nH]c(=O)c3ccccc23)ccc1F)N1CCN(C(=O)C2CC2)CC1 + Cc1cccc(N(C)C(=O)C2C(O)CCN2c2nc(C)cc(C(F)(F)F)c2C#N)c1 | 108%

Need viability, T/C for each of these compounds.
1. O=c1[nH]cc(F)c(=O)[nH]1 + COC1C(OC(N)=O)C(O)C(Oc2ccc3c(O)c(NC(=O)c4ccc(O)c(CC=C(C)C)c4)c(=O)oc3c2C)OC1(C)C
2. CNCc1ccc(-c2[nH]c3cc(F)cc4c3c2CCNC4=O)cc1 + Nc1ccc(C#CCN(C(=O)Cc2ncc(C(F)(F)F)cc2C(F)(F)F)c2ccc(F)cc2)nn1
3. Nc1ccn(C2OC(CO)C(O)C2(F)F)c(=O)n1 (stereo unspecified) + COC1C(OC(N)=O)C(O)C(Oc2ccc3c(O)c(NC(=O)c4ccc(O)c(CC=C(C)C)c4)c(=O)oc3c2C)OC1(C)C
4. C#Cc1c(F)ccc2cc(O)cc(-c3ncc4c(N5CC6CCC(C5)N6)nc(OCC56CCCN5CC(F)C6)nc4c3F)c12 (stereo unspecified) + Cc1cccc(N(C)C(=O)C2C(O)CCN2c2nc(C)cc(C(F)(F)F)c2C#N)c1
5. CNCc1ccc(-c2[nH]c3cc(F)cc4c3c2CCNC4=O)cc1 + Cc1cccc(N(C)C(=O)C2C(O)CCN2c2nc(C)cc(C(F)(F)F)c2C#N)c1

["60%", "119%", "32.1%", "91.8%", "105%"]

# input compound: CCc1cc2c(N3CCc4c(cc(Cn5ccnc5)cc4-c4cn(C)nc4C(F)(F)F)C3=O)ccnc2c(OC)n1 + Cc1cccc(N(C)C(=O)C2C(O)CCN2c2nc(C)cc(C(F)(F)F)c2C#N)c1 ; wanted: its viability, T/C
54.5%
